Cited source for all entries: patent US20110105565A1

Target: human wildtype CFTR (Homo sapiens, UniProt P13569)
Sequence (P13569 whole entry): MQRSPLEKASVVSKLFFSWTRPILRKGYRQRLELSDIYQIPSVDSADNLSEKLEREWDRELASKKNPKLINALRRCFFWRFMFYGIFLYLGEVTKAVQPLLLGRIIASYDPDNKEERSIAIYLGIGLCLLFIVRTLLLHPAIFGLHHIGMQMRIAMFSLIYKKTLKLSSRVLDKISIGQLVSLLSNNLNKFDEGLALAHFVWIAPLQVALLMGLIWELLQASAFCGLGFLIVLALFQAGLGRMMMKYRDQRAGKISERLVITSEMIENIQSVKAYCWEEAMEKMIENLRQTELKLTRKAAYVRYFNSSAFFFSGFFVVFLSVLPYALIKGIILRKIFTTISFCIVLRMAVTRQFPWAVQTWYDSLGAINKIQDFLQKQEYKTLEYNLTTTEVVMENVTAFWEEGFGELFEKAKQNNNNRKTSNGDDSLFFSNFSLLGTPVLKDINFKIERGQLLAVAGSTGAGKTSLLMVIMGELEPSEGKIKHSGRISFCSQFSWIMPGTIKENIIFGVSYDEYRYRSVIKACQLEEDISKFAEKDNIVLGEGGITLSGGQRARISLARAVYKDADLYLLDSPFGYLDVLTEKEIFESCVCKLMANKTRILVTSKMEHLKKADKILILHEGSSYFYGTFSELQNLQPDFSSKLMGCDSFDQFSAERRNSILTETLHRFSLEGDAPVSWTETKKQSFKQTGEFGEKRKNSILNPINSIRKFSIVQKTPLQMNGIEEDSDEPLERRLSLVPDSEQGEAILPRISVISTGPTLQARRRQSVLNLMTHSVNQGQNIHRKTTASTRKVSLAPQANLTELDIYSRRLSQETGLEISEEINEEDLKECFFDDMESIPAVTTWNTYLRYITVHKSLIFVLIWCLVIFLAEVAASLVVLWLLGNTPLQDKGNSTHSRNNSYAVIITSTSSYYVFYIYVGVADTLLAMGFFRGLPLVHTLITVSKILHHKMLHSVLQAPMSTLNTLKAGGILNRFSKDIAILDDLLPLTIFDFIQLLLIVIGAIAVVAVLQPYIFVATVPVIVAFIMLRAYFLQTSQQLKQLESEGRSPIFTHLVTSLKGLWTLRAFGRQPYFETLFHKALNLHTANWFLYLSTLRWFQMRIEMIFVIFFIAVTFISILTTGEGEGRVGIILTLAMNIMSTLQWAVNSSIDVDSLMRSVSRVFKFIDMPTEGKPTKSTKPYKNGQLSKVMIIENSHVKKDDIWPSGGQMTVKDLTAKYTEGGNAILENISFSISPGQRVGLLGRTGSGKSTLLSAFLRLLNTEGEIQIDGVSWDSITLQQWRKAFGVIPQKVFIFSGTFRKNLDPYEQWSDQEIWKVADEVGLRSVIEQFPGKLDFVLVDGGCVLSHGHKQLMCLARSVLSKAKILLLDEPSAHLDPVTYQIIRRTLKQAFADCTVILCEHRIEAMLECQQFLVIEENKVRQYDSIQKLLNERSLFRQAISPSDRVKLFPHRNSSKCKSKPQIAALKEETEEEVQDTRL
Assay: Fluorescence cell-based assay of CFTR inhibition (YFP iodide influx, FRT cells)
Set-up: expressed in transfected cells; host or cells: Fisher rat thyroid (FRT) cells
Details: Table 2 summary table; given as ranges; read-out: IC50
pIC50: −log10 of the molar value.
quantity: pIC50

For record Cc1c(N2C(=O)/C(=C/c3ccc(C(=O)O)cc3)SC2=S)cccc1C(F)(F)F [Compound 18] the listed pIC50 is 5.00 to 5.30

Reported pIC50 ( O=C(O)c1cccc(/C=C2\SC(=S)N(c3ccccc3C(F)(F)F)C2=O)c1 [Compound 28] ) = 4.70 to 5.00

Lab book: pIC50 of O=C(O)COc1ccc(/C=C2\SC(=S)N(c3cccc(C(F)(F)F)c3)C2=O)cc1 [Compound 10] noted as 5.52 to 5.70

The recorded pIC50 for entry O=C(O)c1ccc(/C=C2\SC(=S)N(c3ccc(C(F)(F)F)cc3)C2=O)cc1 [Compound 25] equals 4.70 to 5.00

response.value for O=C1/C(=C/c2ccc(O)cc2)SC(=S)N1c1cccc(C(F)(F)F)c1 [Compound 31] (field: pIC50) = 4.52 to 4.70

Record summary for O=C1/C(=C/c2cc[n+]([O-])cc2)SC(=S)N1c1cccc(C(F)(F)F)c1 [Compound 17] : reported pIC50 = 5.00 to 5.30

Entry O=C(O)c1ccc(NC(=S)C2SC(=S)N(c3cccc(C(F)(F)F)c3)C2=O)cc1O (centres unmarked) [Compound 52] — recorded pIC50 = 4.70 to 5.00

Value of pIC50 reported for the compound O=C(O)c1ccccc1/C=C1\SC(=S)N(c2ccc(C(F)(F)F)cc2)C1=O [Compound 29] is 4.70 to 5.00

Field pIC50 (entry O=C(O)c1ccc(/C=C2\SC(=S)N(c3cc(C(F)(F)F)cc(C(F)(F)F)c3)C2=O)cc1 [Compound 23] ) reads 4.70 to 5.00

Given item Cc1cccc(N2C(=O)/C(=C/c3ccc(C(=O)O)cc3)SC2=S)c1C [Compound 13] , the value recorded as its pIC50 is 5.00 to 5.30

Briefly, pIC50 measured for O=C(O)c1ccccc1/C=C1\SC(=S)N(c2ccccc2C(F)(F)F)C1=O [Compound 27] : 4.70 to 5.00

// pIC50 value for O=C(O)c1cccc(/C=C2\SC(=S)N(c3cccc(C(F)(F)F)c3)C2=O)c1 [Compound 9] : 5.70 to 6.00

pIC50 in this record for O=C(O)c1ccc(/C=C2\SC(=S)N(c3ccc(Cl)c(C(F)(F)F)c3)C2=O)cc1 [Compound 24] : 4.70 to 5.00

Recorded pIC50 (compound Cc1cccc(N2C(=O)/C(=C/c3ccc(C(=O)O)cc3)SC2=S)c1 [Compound 12] ): 5.00 to 5.30

// sample O=C1/C(=C/c2cc(Br)c(O)c(Br)c2)SC(=S)N1c1cccc(C(F)(F)F)c1 [Compound 14] , its pIC50 was 5.00 to 5.30

pIC50 reading for O=C1/C(=C/c2cc(O)c(O)c(O)c2)SC(=S)N1c1cccc(C(F)(F)F)c1 [Compound 19] : 4.70 to 5.00

get_value(item= O=C(O)c1cccc(/C=C2\SC(=S)N(c3ccc(C(F)(F)F)cc3)C2=O)c1 [Compound 21] , readout=pIC50) returns 4.70 to 5.00

The compound O=C1S/C(=C\c2ccc(-c3nn[nH]n3)cc2)C(=O)N1c1cccc(C(F)(F)F)c1 [Compound 48] showed pIC50 equal to 4.70 to 5.00

For O=C(O)c1cccc(/C=C2\SC(=S)N(c3ccc(F)c(C(F)(F)F)c3)C2=O)c1 [Compound 11] the compound record lists pIC50 as 5.00 to 5.30

Form field pIC50, entry O=C(O)c1ccc(/C=C2\SC(=O)N(c3cccc(C(F)(F)F)c3)C2=O)cc1 [Compound 47] : 5.70 to 6.00

###

Target: human wildtype CFTR (Homo sapiens)
Test: Short-circuit current measurements, apical chloride current in FRT cells
Format: cell-based
Design: expressed in transfected cells; host or cells: FRT (Fisher rat thyroid) cells
Conditions: Table 3, inhibition potency; read-out: IC50
quantity: pIC50
// scale note: pIC50 = -log10(conc_M); give the bare number

Measured pIC50 (human wildtype CFTR (Homo sapiens)), entry `O=C1/C(=C/c2cc[n+]([O-])cc2)SC(=S)N1c1cccc(C(F)(F)F)c1` : 5.06

Form: item `Cc1c(N2C(=O)/C(=C/c3ccc(C(=O)O)cc3)SC2=S)cccc1C(F)(F)F` ; test system human wildtype CFTR (Homo sapiens); pIC50: 5.09

Value (pIC50, human wildtype CFTR (Homo sapiens)) for record O=C(O)c1ccc(/C=C2\SC(=S)N(c3cccc(C(F)(F)F)c3)C2=O)cc1 [Compound 5, reference compound] = 6.42

# pIC50 measured on human wildtype CFTR (Homo sapiens) for item `O=C(O)c1ccc(/C=C2\SC(=O)N(c3cccc(C(F)(F)F)c3)C2=O)cc1` = 5.85

# `O=C1/C(=C/c2ccc(-c3nnn[nH]3)cc2)SC(=S)N1c1cccc(C(F)(F)F)c1` with human wildtype CFTR (Homo sapiens): pIC50 is 6.12

###

Molecular target: human wildtype CFTR (Homo sapiens, UniProt P13569)
Test: Fluorescence cell-based assay of CFTR inhibition (YFP iodide influx, FRT cells)
Parameters: expressed in transfected cells; host or cells: Fisher rat thyroid (FRT) cells
Details: Tables 1 and 2; read-out: IC50 (CFTR inhibition)
pIC50: −log10 of the molar value.
quantity: pIC50

Documented pIC50 of O=C(O)COc1ccc(/C=C2\SC(=S)N(c3cccc(C(F)(F)F)c3)C2=O)cc1 [Compound 10] : 5.59

# pIC50 (molecule: O=C(O)c1ccc(SC2CC(=O)N(c3cccc(C(F)(F)F)c3)C2=O)cc1 (stereo not shown) [Compound 50] ) is ~5.15

According to the records, this molecule O=C1/C(=C/c2ccncc2)SC(=S)N1c1cccc(C(F)(F)F)c1 [Compound 33] displays pIC50 of 4.52 to 4.70

Quick note, pIC50 for O=C1/C(=C/c2cc[n+]([O-])cc2)SC(=S)N1c1cccc(C(F)(F)F)c1 [Compound 17] landed at 5.00 to 5.30

###

Molecular target: CFTR (Canis lupus familiaris, UniProt Q5U820)
Construct: MDCK cells, which endogenously express CFTR; endogenous in cells
Sequence (Q5U820 whole entry): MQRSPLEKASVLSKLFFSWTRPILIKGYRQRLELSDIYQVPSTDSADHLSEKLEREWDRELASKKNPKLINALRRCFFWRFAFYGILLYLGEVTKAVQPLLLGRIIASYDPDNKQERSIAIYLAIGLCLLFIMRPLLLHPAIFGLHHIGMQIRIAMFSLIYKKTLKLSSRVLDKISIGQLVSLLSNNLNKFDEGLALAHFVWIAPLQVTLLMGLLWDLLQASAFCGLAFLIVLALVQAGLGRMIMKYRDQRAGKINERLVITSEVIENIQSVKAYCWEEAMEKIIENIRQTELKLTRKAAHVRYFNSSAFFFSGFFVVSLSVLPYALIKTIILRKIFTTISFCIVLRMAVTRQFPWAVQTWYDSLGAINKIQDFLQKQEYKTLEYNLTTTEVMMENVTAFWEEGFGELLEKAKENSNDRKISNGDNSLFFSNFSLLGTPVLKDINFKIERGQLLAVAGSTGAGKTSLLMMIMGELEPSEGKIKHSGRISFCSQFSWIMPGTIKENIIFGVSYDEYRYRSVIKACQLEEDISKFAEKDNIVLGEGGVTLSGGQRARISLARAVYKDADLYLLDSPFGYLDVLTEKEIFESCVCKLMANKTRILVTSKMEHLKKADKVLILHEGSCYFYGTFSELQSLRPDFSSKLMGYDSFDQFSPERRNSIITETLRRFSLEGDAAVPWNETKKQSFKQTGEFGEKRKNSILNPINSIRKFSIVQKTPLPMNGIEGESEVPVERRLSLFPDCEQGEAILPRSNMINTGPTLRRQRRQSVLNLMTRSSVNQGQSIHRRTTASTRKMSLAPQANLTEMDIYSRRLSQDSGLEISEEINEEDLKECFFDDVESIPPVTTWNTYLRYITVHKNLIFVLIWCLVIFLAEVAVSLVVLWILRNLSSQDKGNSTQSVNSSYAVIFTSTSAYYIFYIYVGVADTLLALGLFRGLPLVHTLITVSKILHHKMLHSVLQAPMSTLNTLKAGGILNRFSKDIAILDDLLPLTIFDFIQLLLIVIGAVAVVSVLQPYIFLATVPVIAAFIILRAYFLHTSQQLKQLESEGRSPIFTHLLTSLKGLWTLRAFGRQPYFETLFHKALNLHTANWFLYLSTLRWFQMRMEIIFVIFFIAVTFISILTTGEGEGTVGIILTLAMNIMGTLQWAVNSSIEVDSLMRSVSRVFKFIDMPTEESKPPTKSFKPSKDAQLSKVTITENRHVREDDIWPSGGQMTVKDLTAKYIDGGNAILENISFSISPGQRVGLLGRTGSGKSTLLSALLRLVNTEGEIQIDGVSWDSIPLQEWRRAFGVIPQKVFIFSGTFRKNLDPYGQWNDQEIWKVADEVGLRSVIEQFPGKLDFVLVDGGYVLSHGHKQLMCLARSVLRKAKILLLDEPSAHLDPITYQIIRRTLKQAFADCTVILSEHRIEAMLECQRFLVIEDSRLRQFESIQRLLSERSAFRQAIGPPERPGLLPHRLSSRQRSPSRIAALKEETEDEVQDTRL
Assay: Short-circuit current measurements in MDCK cells
Conditions: after CFTR stimulation by forskolin; read-out: IC50, inhibition of short-circuit current in MDCK cells
quantity: IC50

Given item `O=C1/C(=C/c2ccc(-c3nn[nH]n3)cc2)SC(=S)N1c1cccc(C(F)(F)F)c1` , the value recorded as its IC50 is ~1000 nM

###

Biological target: UniProtKB P13569
Test: Fluorescence cell-based assay of CFTR inhibition (YFP iodide influx, FRT cells)
Parameters: expressed in transfected cells; host or cells: Fisher rat thyroid (FRT) cells
Conditions: Table 1, upper part; CFTR inhibitory activity, given as ranges; read-out: IC50
pIC50: −log10 of the molar value.
Please provide measured pIC50 for the entries that follow.

Briefly, pIC50 measured for O=C(O)c1cc(/C=C2\SC(=S)N(c3ccc(C(F)(F)F)cc3)C2=O)ccc1O [Compound 32] : 4.52 to 4.70

Short answer for O=C1/C(=C/c2cc(Br)c(O)c(Br)c2O)SC(=S)N1c1cccc(C(F)(F)F)c1 [Compound 15] : pIC50 was 5.00 to 5.30

Looking up O=C(O)c1ccc(/C=C2\SC(=S)N(c3ccc(F)c(C(F)(F)F)c3)C2=O)cc1 [Compound 8] , I found its pIC50 recorded as 5.70 to 6.00

For O=C(O)COc1ccc(/C=C2\SC(=S)N(c3cccc(C(F)(F)F)c3)C2=O)cc1 [Compound 10] the compound record lists pIC50 as 5.52 to 5.70

###

Biological target: human wildtype CFTR (Homo sapiens)
Assay: Fluorescence cell-based assay of CFTR inhibition (YFP iodide influx, FRT cells)
Parameters: expressed in transfected cells; host or cells: Fisher rat thyroid (FRT) cells
Settings: Table 2 summary table; given as ranges; read-out: IC50
pIC50: −log10 of the molar value.
Exercise: state measured pIC50 for each of the compounds provided.

In plain terms, O=C1/C(=C/c2cc(Br)c(O)c(Br)c2O)SC(=S)N1c1cccc(C(F)(F)F)c1 [Compound 15] has a documented pIC50 of 5.00 to 5.30

Recorded result, O=C1/C(=C/c2ccc(O)c(O)c2O)SC(=S)N1c1cccc(C(F)(F)F)c1 [Compound 34] , pIC50: 4.52 to 4.70

Entry O=C(O)c1ccc(/C=C2\SC(=S)N(c3ccccc3C(F)(F)F)C2=O)cc1 [Compound 20] , pIC50 reported as 4.70 to 5.00

# pIC50 (compound: O=C(O)c1ccccc1/C=C1\SC(=S)N(c2cccc(C(F)(F)F)c2)C1=O [Compound 26] ) is 4.70 to 5.00

Form field pIC50, entry O=C(O)c1cc(/C=C2\SC(=S)N(c3cccc(C(F)(F)F)c3)C2=O)ccc1O [Compound 7] : 5.70 to 6.00

pIC50 recorded for this compound, O=C1/C(=C/c2ccncc2)SC(=S)N1c1cccc(C(F)(F)F)c1 [Compound 33] , is 4.52 to 4.70

Memo: O=C(O)c1ccc(/C=C2\SC(=S)N(c3cccc(C(F)(F)F)c3)C2=O)cc1 [Compound 5, reference compound] , reported pIC50: 6.00 to 7.00

So for O=C(O)c1ccc(SC2CC(=O)N(c3cccc(C(F)(F)F)c3)C2=O)cc1 (centres unmarked) [Compound 50] , the logged pIC50 turned out to be 5.00 to 5.30
